Where these numbers come from: patent US20240116985A1

- Assay System: beta-catenin/TCF4 engagement (Homo sapiens, UniProt P35222)
- Construct: expressed in transfected cells; host or cells: HEK293
- Sequence (P35222 1-781): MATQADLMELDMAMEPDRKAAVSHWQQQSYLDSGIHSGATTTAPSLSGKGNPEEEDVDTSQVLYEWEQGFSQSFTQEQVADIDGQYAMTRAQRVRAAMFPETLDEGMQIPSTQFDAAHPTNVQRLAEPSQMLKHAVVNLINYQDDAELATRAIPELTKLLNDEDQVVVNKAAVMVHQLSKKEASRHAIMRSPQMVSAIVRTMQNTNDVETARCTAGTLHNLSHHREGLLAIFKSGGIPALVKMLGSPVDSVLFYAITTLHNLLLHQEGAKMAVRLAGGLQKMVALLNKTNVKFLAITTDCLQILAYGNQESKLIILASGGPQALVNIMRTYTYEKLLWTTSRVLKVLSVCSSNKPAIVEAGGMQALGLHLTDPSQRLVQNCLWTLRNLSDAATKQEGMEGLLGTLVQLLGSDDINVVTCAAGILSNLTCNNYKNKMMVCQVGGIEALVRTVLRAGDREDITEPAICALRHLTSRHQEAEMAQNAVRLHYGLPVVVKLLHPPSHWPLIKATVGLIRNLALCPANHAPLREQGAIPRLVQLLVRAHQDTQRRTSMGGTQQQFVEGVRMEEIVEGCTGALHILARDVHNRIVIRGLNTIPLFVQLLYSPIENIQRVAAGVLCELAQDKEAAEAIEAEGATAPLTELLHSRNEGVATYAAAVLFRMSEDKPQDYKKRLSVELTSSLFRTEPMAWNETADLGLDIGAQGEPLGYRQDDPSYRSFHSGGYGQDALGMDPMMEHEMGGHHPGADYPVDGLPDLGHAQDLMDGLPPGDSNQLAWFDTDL
- Protocol Summary: Nano-BRET target engagement assay (B-cat-Halo & TCF4-Luc in HEK293 cells)
- Type: cell-based
- Condition Set: absolute IC50; read-out: NanoBRET Abs IC50
Listed here are compounds together with their documented pIC50.
Units for pIC50: none; it is -log10 of a concentration expressed in mol/L.

// known answers, use as guide
Compound	pIC50
CC(=O)N1CCC[C@]12CC=CCCCC1(CCCC=CCCCOC(=O)N3CC[C@@](C(=O)N[C@@H](Cc4ccsc4)C(=O)N[C@@H](Cc4csc5ccccc45)C(=O)N[C@@H](C)C(N)=O)(C3)NC(=O)[C@H](CC(C)C)NC(=O)[C@H](Cc3cccc(F)c3)NC(=O)[C@H](C)NC(=O)[C@H](C)NC(=O)[C@H](Cc3cccc(C(=O)O)c3)NC(=O)[C@H](CC(=O)O)NC1=O)NC(=O)[C@H](CC(C)(C)C)NC(=O)[C@H](CC(=O)O)NC2=O (stereo partly drawn)	5.51
CC(=O)N1CCC[C@]12CC=CCCCC1(CCCC=CCCCOC(=O)N3CC[C@@](C(=O)N[C@@H](Cc4ccccc4Cl)C(=O)N[C@@H](Cc4csc5ccccc45)C(=O)N[C@@H](CCC(N)=O)C(N)=O)(C3)NC(=O)[C@H](CC(N)=O)NC(=O)[C@H](Cc3ccccc3)NC(=O)[C@H](C)NC(=O)[C@H](Cc3ccccc3)NC(=O)[C@H](CN(CC(=O)O)CC(F)(F)F)NC(=O)[C@H](CC(=O)O)NC1=O)NC(=O)[C@H](CC(C)(C)C)NC(=O)[C@H](CC(=O)O)NC2=O (stereo partly drawn)	4.85

Next compound, please.
Query: I am curious: what pIC50 value has been reported for CC(=O)N1CCC[C@]12CC=CCCCC1(CCCC=CCCCCCC[C@@](C)(C(=O)N[C@@H](Cc3ccccc3C(F)(F)F)C(=O)N[C@@H](Cc3csc4ccccc34)C(=O)N[C@@H](CCC(N)=O)C(N)=O)NC(=O)[C@H](CCO)NC(=O)[C@H](Cc3ccccc3)NC(=O)[C@H](C)NC(=O)[C@H](C)NC(=O)[C@H](CC(=O)O)NC(=O)[C@H](CC(=O)O)NC1=O)NC(=O)[C@H](CC(C)(C)C)NC(=O)[C@H](CC(=O)O)NC2=O (stereo partly drawn) ?
Reply: 4.79
